# key: entry, value: IC50
target: Induced myeloid leukemia cell differentiation protein Mcl-1 (Homo sapiens); format: functional
Active and inactive are the calls of the source.
parameter: IC50

CC(=O)c1ccc(NC(=O)CSc2nnc(-c3ccco3)c(-c3ccco3)n2)cc1; 8.94 µM (active)
C/N=c1\scc(-c2cccs2)n1/N=C/c1ccc(O)c(O)c1O; 7.08 µM (active)
O=C1NC(=S)/C(=C\c2ccc(-c3ccccc3Cl)o2)S1; 3.31 µM (active)
CC1=NOC(=O)/C1=C\c1ccc(-c2ccc(Cl)cc2Cl)o1; 1.7 µM (active)
CCn1c(C)cc(/C=C2\NC(=O)N(Cc3ccc(Cl)cc3)C2=O)c1C; 3.37 µM (active)

###

Let's look at some molecules and their measured EC50.
tested on: Streptococcus sp. 'group A'; assay: growth inhibition of control SK(-) GAS strain, dose response, counter-screen for streptokinase expression inhibitor project, luminescence, kanamycin, BacTiterGlo, confirmation (AID 1900); format: functional, organism-based
Active and inactive are the calls of the source.
parameter: EC50

CC(=O)OCC1=C(C(=O)O)N2C(=O)C(NC(=O)C(C)Cn3nc(C)c(Cl)c3C)C2SC1 (stereo unspecified); 3.56 µM (active)
O=C(Nc1ncc(Cc2cccc(Cl)c2)s1)c1cccs1; 3.67 µM (active)
O=C(/C=C\c1ccco1)Nc1nc(-c2ccc3ccccc3c2)cs1; 7.52 µM (active)
COc1ccc(-c2cc(C3CCN(c4ncccc4[N+](=O)[O-])CC3)[nH]n2)cc1; 4.96 µM (active)
C=CCSc1nc(-c2ccccc2)c2cc(Cl)ccc2n1; 15 µM (active)
Cc1c(CCOC(=O)C2C3CC4CC(C3)CC2C4)sc[n+]1CC(=O)c1ccc(Br)cc1 (stereo unspecified); 8.85 µM (active)

###

molecular target: Streptokinase A (Streptococcus pyogenes serotype M1, UniProt P10520); assay: S. pyogenes streptokinase expression inhibitors, potency, dose response, plasminogen activation absorbance, OD405 (AID 1914); assay type: functional, Streptococcus pyogenes M1 GAS;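 note: secreted streptokinase activity via plasminogen activation per viability signal from cell pellet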
Activity calls are given as the source filed them.
Entries and their EC50 values follow.
parameter: EC50

O=C(NC(NC(=S)Nc1c(Cl)cc(Cl)cc1Cl)C(Cl)(Cl)Cl)OCc1ccccc1 (stereo not given); 1.83 µM (active)
Cc1ccc(OCCn2c(S)nc3ccccc32)c(C(C)C)c1; 15.2 µM (active)
Cn1c(=O)[nH]c(=O)c2c1nc(N1CCC(Cc3ccccc3)CC1)n2Cc1ccccc1; 18 µM (active)
Cc1ccc(Cn2c(=O)n(Cc3ccco3)c(=O)c3ccccc32)cc1; > 150 µM (not active)
O=C(/C=C\c1ccco1)Nc1nc(-c2ccc3ccccc3c2)cs1; > 150 µM (not active)

###

target: Ubiquitin-conjugating enzyme E2 N (Homo sapiens); format: functional
Calls of active or inactive are those of the source.
Classes used: t = active, f = inactive

Cc1ccc(C(C(=O)NCC2CCCO2)N(C(=O)c2snc(C(N)=O)c2N)c2ccc3c(c2)OCCO3)cc1 (centres undefined); t
CN(C)CCCN(C(=O)c1ccc(S(=O)(=O)N2CCCCCC2)cc1)c1nc2cc3c(cc2s1)OCCO3; t
CCOc1ccc2nc(N(CCCN(C)C)C(=O)c3ccc(S(=O)(=O)N4CCc5ccccc5C4)cc3)sc2c1; t
Cc1ccc(C(=O)NCCN2C3=NC[C@@H](Cc4ccccc4)N3C[C@H]2Cc2ccc(O)cc2)cc1Br; f
